# credit: PubChem BioAssay AID248

- Tested on: L1210 leukemia ip in BDF1 mice, survival T/C
- Method description: NCI In Vivo Anticancer Drug Screen. Data for tumor model L1210 Leukemia (intraperitoneal) in B6D2F1 (BDF1) mice
- Recorded conditions: endpoint: mean survival time; dose: 400.0 mg/kg/injection; schedule: Q04DX002 (ip); vehicle: saline with Tween-80; higher = longer survival
Toxic doses and inconclusive results are not listed.
Reported property: T/C

Compound: CC1CC(C(=O)O)Cc2c1nc1ccccc1c2C(=O)O (centres undefined)
Experimental result: 96 % of control
--
Compound: O=[N+]([O-])c1ccccc1-c1ccccc1[N+](=O)[O-]
Experimental result: 87 % of control
--
Compound: C1CCC(C2CCC(C3CCCC3)C2)C1 (centres undefined)
Experimental result: 91 % of control
--
Compound: CCOC(=O)c1c(/N=C/c2cc(Br)ccc2O)sc2c1CCCC2
Experimental result: 98 % of control
--
Compound: C=CCN(CC=C)c1nc(N(CC)CC)nc(N(CC)CC)n1
Experimental result: 112 % of control
--
Compound: CC(C)(C)NC(=O)Nc1cccc2c(O)cccc12
Experimental result: 98 % of control
--
Compound: O=C(O)CS(=O)(=O)Cc1ccc(Cl)cc1
Experimental result: 95 % of control
--
Compound: CC12CCC(=O)C=C1CCC1C2CCC2(C)C(OC(=O)c3ccc(N)cc3)CCC12 (centres undefined)
Experimental result: 94 % of control
--
Compound: COc1cccc(C2NC(=O)CCC2[N+](=O)[O-])c1OC (centres undefined)
Experimental result: 94 % of control

---

Below is a list of entries, each paired with its recorded T/C value.
- System: L1210 leukemia ip in BDF1 mice, survival T/C
- Method description: NCI In Vivo Anticancer Drug Screen. Data for tumor model L1210 Leukemia (intraperitoneal) in B6D2F1 (BDF1) mice
- Recorded conditions: endpoint: mean survival time; dose: 200.0 mg/kg/injection; schedule: Q04DX003 (ip); vehicle: saline with Tween-80; higher = longer survival
Toxic doses and inconclusive results are not listed.

Compound: Cc1c(C(=O)O)c(C)c([N+](=O)[O-])c(C)c1[N+](=O)[O-]
T/C: 97 % of control
//
Compound: CC(=O)OCC1OC(Oc2c(C)cc([N+](=O)[O-])cc2[N+](=O)[O-])C(OC(C)=O)C(OC(C)=O)C1OC(C)=O (stereo unspecified)
T/C: 100 % of control
//
Compound: COC(=O)C1=C(N)CCc2ccccc21
T/C: 103 % of control
//
Compound: NC(=O)c1nnc(-c2ccc(Cl)cc2)[nH]c1=O
T/C: 98 % of control
//
Compound: O=C(O)c1cc2ccccc2[nH]1
T/C: 95 % of control
//
Compound: CN(C)c1ccc(NC(=O)Nc2cccc(Cl)c2)cc1
T/C: 100 % of control
//
Compound: CCc1c(/C=C2/OC(=O)NC2=O)[nH]c(=S)[nH]c1=O
T/C: 96 % of control
//
Compound: O=C1N/C(=N\OCCc2ccccc2)CC(NOCCc2ccccc2)N1 (stereo unspecified)
T/C: 94 % of control
//
Compound: O=C(Nc1ccc(I)cc1)Nc1ccc(Cl)cc1[N+](=O)[O-]
T/C: 97 % of control
//
Compound: O=C(/C=N/O)Nc1cc(Cl)ccc1Cl
T/C: 93 % of control
//
Compound: CC1CCCCC1NC(=O)NCCOC(=O)OCCNC(=O)NC1CCCCC1C (stereo unspecified)
T/C: 91 % of control

---

- Tested on: L1210 leukemia ip in BDF1 mice, survival T/C
- Method description: NCI In Vivo Anticancer Drug Screen. Data for tumor model L1210 Leukemia (intraperitoneal) in B6D2F1 (BDF1) mice
- Recorded conditions: endpoint: mean survival time; dose: 100.0 mg/kg/injection; schedule: Q04DX003 (ip); vehicle: saline with Tween-80; higher = longer survival
Inconclusive results and toxic doses are left out.
Reported property: T/C

Molecule: COc1ccc(C=NC2C(OC(C)=O)OC(COS(=O)(=O)c3ccc(C)cc3)C(OC(C)=O)C2OC(C)=O)cc1 (configuration not stated)
Experimental result: 101 % of control

Molecule: CC(=O)c1ccc(Br)c2ccccc12
Experimental result: 100 % of control

Molecule: O=C(COC(=O)c1ccccc1)NCCCCc1ccccc1
Experimental result: 94 % of control

Molecule: CCOC(=O)C(CSCSC)NC(=O)/C=C/c1cccnc1 (configuration not stated)
Experimental result: 93 % of control

Molecule: CCOc1ccc(NC(=O)Nc2ccccc2)cc1
Experimental result: 96 % of control

Molecule: CCCCC(O)(CCCC)C(CC)CC
Experimental result: 108 % of control

Molecule: COc1cc(NS(=O)(=O)c2ccc(C)cc2)c2c(c1N)C(=O)c1ccccc1C2=O
Experimental result: 98 % of control

Molecule: CC(=O)N(C1=C(N(CCO)CCO)C(=O)c2ccccc2C1=O)c1ccccc1
Experimental result: 106 % of control

Molecule: CC1(C)C2CCC(C2)C12CC(F)(F)C(F)(F)S2 (configuration not stated)
Experimental result: 103 % of control

Molecule: NC(=O)c1nccnc1Cl
Experimental result: 100 % of control

Molecule: COC(=O)C(=C(c1ccccc1)c1ccccc1)c1ccccc1C(=O)O
Experimental result: 101 % of control

Molecule: CC(=O)C(c1ccccc1)(c1ccccc1)c1ccccc1
Experimental result: 96 % of control

Molecule: Clc1ccc(/C=C/c2nccc(Cl)n2)cc1
Experimental result: 106 % of control

Molecule: CCOc1ccc(N2C(=O)CC(Sc3ccccc3N)C2=O)cc1 (configuration not stated)
Experimental result: 89 % of control

Molecule: Cc1ccccc1C1SCCCS1
Experimental result: 101 % of control

Molecule: CC(C)(C)NC(=O)Nc1ccc(O)cc1
Experimental result: 95 % of control

Molecule: Cc1cc(C)cc(C(C)(C)C)c1
Experimental result: 92 % of control

Molecule: CCCCCCCCCCSCCSCCCCCCCCCC
Experimental result: 96 % of control

Molecule: CCC1(C)CC(=O)N(C/C=C(\C)CCC=C(C)C)C(=O)C1
Experimental result: 100 % of control

Molecule: CCOC(=O)c1c(-c2cc(OC)c(OC)c(OC)c2)csc1NC(=O)c1ccccc1
Experimental result: 105 % of control

Molecule: O=C(Cc1ccccc1)NC(CSSCC(NC(=O)Cc1ccccc1)C(=O)O)C(=O)O (configuration not stated)
Experimental result: 95 % of control

Molecule: COC(=O)C(C)C(C)(O)C(C)(C)C (configuration not stated)
Experimental result: 101 % of control

Molecule: COCCNP(=S)(OC)OC
Experimental result: 101 % of control

Molecule: CCOC1c2ccccc2-c2ccccc2N1C(=O)c1ccccc1 (configuration not stated)
Experimental result: 106 % of control

Molecule: CCOC(=O)c1sc(SSc2nc(C)c(C(=O)OCC)s2)nc1C
Experimental result: 102 % of control

Molecule: O=C(Nc1ccc([N+](=O)[O-])cc1Cl)Oc1ccc(Cl)cc1Cc1ccccc1
Experimental result: 88 % of control

Molecule: CCCN(CCC)c1ccc(N=Nc2cc(Cl)ccc2Cl)cc1
Experimental result: 91 % of control

Molecule: COC1OC2COC(c3ccccc3)OC2C(O)C1OS(=O)(=O)c1ccc(C)cc1 (configuration not stated)
Experimental result: 87 % of control

Molecule: C=CCCCCCCCCC(=O)NCc1ccncc1
Experimental result: 90 % of control

Molecule: CC(CCC(=O)O)C1CCC2C3CCC4CC(OC=O)CCC4(C)C3CC(OC=O)C12C (configuration not stated)
Experimental result: 96 % of control

Molecule: O=C(O)CCCC1CC(=O)c2c(c(O)c3ccccc3c2O)C1=O (configuration not stated)
Experimental result: 101 % of control

Molecule: CSc1ccc(NC(=O)Nc2ccc(C(=O)NCC(=O)O)cc2)cc1
Experimental result: 110 % of control

Molecule: CCCCSCc1nc2nc(Cl)c(Cl)nc2[nH]1
Experimental result: 100 % of control

Molecule: O=c1cc(-c2ccccc2)c2ccc(O)cc2o1
Experimental result: 95 % of control

Molecule: CO[Si](OC)(OC)OC
Experimental result: 101 % of control

Molecule: C#CCOCC(CCl)OC(N)=O (configuration not stated)
Experimental result: 101 % of control

Molecule: COc1cccc2c1C(=O)CC2
Experimental result: 87 % of control

---

- System: L1210 leukemia ip in BDF1 mice, survival T/C
- Method description: NCI In Vivo Anticancer Drug Screen. Data for tumor model L1210 Leukemia (intraperitoneal) in B6D2F1 (BDF1) mice
- Recorded conditions: endpoint: mean survival time; dose: 400.0 mg/kg/injection; schedule: Q01DX001 (ip); vehicle: saline with Tween-80; higher = longer survival
Toxic doses and inconclusive results are not listed.
Below is a list of entries, each paired with its recorded T/C value.

Compound: CCCCCCCCCCC(CCCCCCC)(CCCCCCCC)CCCCCCCCC (stereo unspecified)
T/C: 101 % of control

Compound: CC(/C=C/c1ccccc1Cl)=N\NC(=O)c1ccncc1
T/C: 90 % of control

Compound: O=C(Nc1ccc(Cl)cc1[N+](=O)[O-])Oc1ccc(-c2ccccc2)cc1
T/C: 89 % of control

Compound: Cc1ccccc1C(O)c1cnc(C)n1Cc1ccccc1 (stereo unspecified)
T/C: 93 % of control

Compound: C/C(=N\O)C(C)C
T/C: 98 % of control

Compound: O=C(Nc1ccc(I)cc1)Nc1ccc(Cl)cc1[N+](=O)[O-]
T/C: 87 % of control

Compound: CCOC(=O)CCC(NC(=O)c1cnc(N)s1)C(=O)OCC (stereo unspecified)
T/C: 102 % of control

Compound: O=C1/C(=C\c2ccc(O)cc2)Oc2cc(O)ccc21
T/C: 90 % of control

Compound: COc1nsc(N)n1
T/C: 91 % of control

Compound: IC#Cc1ccccc1
T/C: 105 % of control

Compound: O=C(Nc1ccc(-c2nc3nc[nH]c(=O)c3[nH]2)cc1)c1cccc(S(=O)(=O)F)c1
T/C: 92 % of control
